Data provenance: the kinase profiling compilation of Christmann-Franck et al. (2016)

In this section we review reported kinase still bound, per cent of control values for a set of molecules.
Tested on: FLT3 (human), P36888 [K663Q]
Test: KINOMEscan competition binding
Settings: compound 10.0 µM
observable: kinase still bound, per cent of control (%)

compound.string	observable	units.symbol	recorded.result
CC(C)n1nc(-c2cc3cc(O)ccc3[nH]2)c2c(N)ncnc21	kinase still bound, per cent of control	%	27
CCC(=O)N1CCN(c2ccc(-n3c(=O)ccc4cnc5ccc(-c6cnc7ccccc7c6)cc5c43)cc2C(F)(F)F)CC1	kinase still bound, per cent of control	%	23
COc1ccc(-c2ccc3c(N4CCOCC4)nc(N4C[C@@H](C)O[C@@H](C)C4)nc3n2)cc1CO	kinase still bound, per cent of control	%	96
COC(=O)Nc1ccc(-c2nc(N3CCOCC3)c3cnn(C4CCN(C(=O)OC)CC4)c3n2)cc1	kinase still bound, per cent of control	%	93
